- Test system: Hs-578T
- test method notes: NCI tumour cell line growth inhibition, 48 h
Calls of active or inactive are those of the source. Cut-off read from the data, not from the text of the source: active = GI50 up to about 1.1 µM and inactive = higher.
Respond only with the outcome that fits, drawn from active, inactive

Any idea what this test logged for O=C(/C=C\c1ccccc1)Oc1ccc(/C=C2\CCCCC2=O)cc1 ?
inactive

Any idea what this test logged for CC(C)(CCCCC(C)(C)[N+](C)(C)C)[N+](C)(C)C ?
inactive

Any idea what this test logged for CC(C)(C)OC(=O)NCCCC(=O)NC1(c2cc3ccccc3s2)CCCCC1 ?
inactive

Any idea what this test logged for COC(=O)C1=C(O)C(C(=O)OC)[C@]2(O)[C@H](C(=O)OC)[C@H]1C[C@@H](c1ccc(OC)c(OC)c1)[C@H]2C(=O)OC (some centres undefined) ?
inactive

Any idea what this test logged for COc1ccc(-c2cc(=O)c3c(O)c(OC)c(O)cc3o2)cc1O ?
inactive

Any idea what this test logged for CCOC(=O)CCC(NC(=O)c1ccc(OCc2ccc3nc(OC)c(OC)nc3c2)cc1)C(=O)OCC (centres undefined) ?
inactive

Any idea what this test logged for CCCNC(=S)N/C=C1\C(=O)Nc2ccccc2C1=O ?
inactive

Any idea what this test logged for S=c1nc(N/N=C/c2cccs2)c2cn[nH]c2[nH]1 ?
inactive

Any idea what this test logged for Cc1nc2ccc(Br)cc2c(=O)n1-c1ccc(NC2OCC(O)C(O)C2O)cc1 (centres undefined) ?
inactive

Any idea what this test logged for CN(CC(=O)O)c1ncc2c(n1)CCCC2 ?
inactive

Any idea what this test logged for Cc1cc(N(C)C)c2ccccc2[n+]1CCCCCCCCCC[n+]1c(C)cc(N(C)C)c2ccccc21.[O-][Cl+3]([O-])([O-])[O-].[O-][Cl+3]([O-])([O-])[O-] ?
inactive

Any idea what this test logged for C=C(C)[C@]12CC(C)C34OC(/C=C\C=C\CCCCCCCCC)(O[C@@H]1[C@@H]3[C@@H]1O[C@]1(CO)[C@@H](O)[C@]1(O)C(=O)C(C)=C[C@@H]41)O2 (some centres undefined) ?
active

Any idea what this test logged for CN(c1ccccc1Cl)S(=O)(=O)c1ccccc1 ?
inactive

Any idea what this test logged for CC(=N\c1ccncc1)/C(C)=N/c1ccncc1 ?
inactive

Any idea what this test logged for COc1cccc(/C=C/C2=NN(c3cccc(S(=O)(=O)O)c3)C3(C2)SCC(=O)N3c2nc3ccccc3s2)c1 (centres undefined) ?
inactive

Any idea what this test logged for COc1ccccc1N1C(=O)/C(=C\c2cc(OC)c(OC)c(OC)c2)SC1c1ccccc1 (centres undefined) ?
inactive

Any idea what this test logged for COc1ccc(-c2coc3cc(O)ccc3c2=O)cc1 ?
inactive

Any idea what this test logged for FC(F)(F)c1cc(N(C2c3ccccc3C=Cc3ccccc32)P(Cl)Cl)cc(C(F)(F)F)c1 ?
inactive

Any idea what this test logged for Nc1nc2c(c(=O)[nH]1)N=C(COP(=O)(O)OP(=O)(O)O)CN2 ?
inactive

###

- System: NCI-H522
- test method notes: NCI tumour cell line growth inhibition, 48 h
Activity calls are given as the source filed them. No stated cut-off is given here; in the data, active = GI50 up to about 1.1 µM and inactive = higher.
Task for the reader: assign each of the following compounds its reported GI50.

So what's the measured GI50 for this one? CC1=CC=C2c3ccccc3C=CN2C(=O)C1
43.3 µM (inactive)

So what's the measured GI50 for this one? COc1cccc2c1C1=CC(=O)CCC1C(C)(C)O2 (stereo unspecified)
> 100 µM (inactive)

So what's the measured GI50 for this one? COc1ccc2c(c1)O[C@@H]1c3ccc(OC)cc3OC[C@H]21
15.3 µM (inactive)

So what's the measured GI50 for this one? CCC(=O)NC(Nc1cccc(F)c1)(C(F)(F)F)C(F)(F)F
29.6 µM (inactive)

So what's the measured GI50 for this one? O=C(Nc1c(Cl)cc([N+](=O)[O-])cc1Cl)C(=O)C(C(=O)c1ccncc1)C1OC(=O)c2ccccc21 (stereo unspecified)
> 100 µM (inactive)

So what's the measured GI50 for this one? Oc1ccc2c(c1)OCC1(O)Cc3cc(O)c(O)cc3C21 (stereo unspecified)
21.3 µM (inactive)

###

- Tested on: T47D
- test method notes: NCI tumour cell line growth inhibition, 48 h
The source made the active and inactive calls. No stated cut-off is given here; in the data, active = GI50 up to about 1.1 µM and inactive = higher.
reported metric: GI50

So what's the measured GI50 for this one? C#CCCOC1(OC)N=NC(C)(C)O1 (stereo not given)
> 100 µM (inactive)

So what's the measured GI50 for this one? Cc1ccc(S(=O)(=O)N/N=C2\CCCCCCCCCCC2CN(C)C)cc1 (stereo not given)
13.4 µM (inactive)

So what's the measured GI50 for this one? O=C(NCc1cccc(C(F)(F)F)c1)c1cc2sccc2nc1C(F)(F)F
> 100 µM (inactive)

So what's the measured GI50 for this one? CC(=O)NNc1nc(C)c(C(/C=C/c2ccccc2O)=N/N=C(N)N)s1
> 100 µM (inactive)

So what's the measured GI50 for this one? COc1cc(C2c3cc4c(cc3C3OC[C@@H]2C3CO)OCO4)cc(OC)c1OC (stereo not given in full)
> 100 µM (inactive)

So what's the measured GI50 for this one? COC(=O)[C@@H]1C=C[C@H](OC2OC(COC(C)=O)C(OC(C)=O)C(OC(C)=O)C2OC(C)=O)n2c(=O)n(-c3ccccc3)c(=O)n21 (stereo not given in full)
2.57 µM (inactive)

So what's the measured GI50 for this one? CCc1n[nH]c(=O)n1N1C(=O)CCC1=O
> 100 µM (inactive)

So what's the measured GI50 for this one? COc1ccc(SCc2cc(OC)c(OC)c(OC)c2)cc1OC
13.4 µM (inactive)

So what's the measured GI50 for this one? CC(C)C1=CC23CCC4C(C)(C(=O)O)CCCC4(C)C2CC1C(C(=O)O)C3C(=O)O (stereo not given)
> 100 µM (inactive)

So what's the measured GI50 for this one? O=C(c1ccco1)N1CCCN(C(=O)c2ccco2)C1=S
7.35 µM (inactive)

###

- System: SK-MEL-2
- test method notes: NCI tumour cell line growth inhibition, 48 h
Activity calls are given as the source filed them. Rule as the data show it: active = GI50 up to about 1.1 µM and inactive = higher.
Task for the reader: assign each of the following molecules its reported GI50.

Please tell me: GI50 of CC[N+](C)(CC)CCN1C(=O)c2ccccc2S1(=O)=O , system SK-MEL-2?
> 100 µM (inactive)

Please tell me: GI50 of COc1ccccc1C(=O)c1c(NCc2ccccc2)c(=O)c1=O , system SK-MEL-2?
> 100 µM (inactive)

Please tell me: GI50 of CC1CC(N)=Nc2ccccc2N1Cc1ccccc1 (configuration not stated) , system SK-MEL-2?
14.3 µM (inactive)

Please tell me: GI50 of COC(=O)C1(C(=O)OC)CC2=C(S(=O)(=O)c3ccccc3)C[C@H](S(=O)(=O)c3ccccc3)[C@H]2C1 , system SK-MEL-2?
27.2 µM (inactive)

Please tell me: GI50 of CC(C)/C(Cl)=N\OC(=O)Nc1ccc(S(N)(=O)=O)cc1 , system SK-MEL-2?
18.7 µM (inactive)

Please tell me: GI50 of O=S(=O)(c1ccc(-c2nnc(-c3ccc(F)cc3)o2)cc1)c1ccc(-c2nnc(-c3ccc(F)cc3)o2)cc1 , system SK-MEL-2?
> 100 µM (inactive)

Please tell me: GI50 of COc1ccc(-c2nc(SCC(=O)N/N=C/c3ccc(N(C)C)cc3)[nH]c2-c2ccc(OC)cc2)cc1 , system SK-MEL-2?
86.1 µM (inactive)

Please tell me: GI50 of COc1ccc(-c2[nH]c(=O)n(C3OC(CO)C(O)C(O)C3O)c(=O)c2C#N)cc1 (configuration not stated) , system SK-MEL-2?
> 100 µM (inactive)

Please tell me: GI50 of N/C(=N\N/C=C1\C=Nc2cc(C(F)(F)F)ccc2C1=O)NO , system SK-MEL-2?
> 10 µM (inactive)

Please tell me: GI50 of Cc1cc(Cc2c(F)c(F)c(C(c3cc(C)no3)c3c(F)c(F)c(F)c(F)c3F)c(F)c2F)on1 (configuration not stated) , system SK-MEL-2?
9.71 µM (inactive)

Please tell me: GI50 of CC1=C(O)C(=O)C[C@]2(C)[C@H]3CC=C4[C@@H]5CC(C)(C)CC[C@@H]5C(=O)[C@H](O)[C@@]4(C)[C@]3(C)CC[C@@H]12 , system SK-MEL-2?
37.4 µM (inactive)

Please tell me: GI50 of COc1ccc(-c2cc(=O)c3c(OC)c(OC)c(OC)c(OC)c3o2)cc1OC , system SK-MEL-2?
49.4 µM (inactive)
